target: human CD33 A328S (human, UniProt P20138 18-364); assay: flow cytometry, alanine scan
Sequence (P20138 18-364 A328S limits assumed): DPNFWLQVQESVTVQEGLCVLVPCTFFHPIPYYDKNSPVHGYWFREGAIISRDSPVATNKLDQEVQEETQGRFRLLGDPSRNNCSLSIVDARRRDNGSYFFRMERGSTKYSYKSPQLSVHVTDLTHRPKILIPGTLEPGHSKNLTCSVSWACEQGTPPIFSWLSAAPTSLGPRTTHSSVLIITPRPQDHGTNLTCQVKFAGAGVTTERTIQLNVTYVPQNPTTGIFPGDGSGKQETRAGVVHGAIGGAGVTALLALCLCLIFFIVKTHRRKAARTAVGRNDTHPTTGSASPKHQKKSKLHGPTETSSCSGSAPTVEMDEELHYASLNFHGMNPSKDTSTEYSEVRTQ
Kindly supply the reported Mean % WT Binding values for the records listed here.

Q: Quick check: Mean % WT Binding of Refmab #2 (antibody, V domains shown, The alanine scan used IgG or Fab) VH: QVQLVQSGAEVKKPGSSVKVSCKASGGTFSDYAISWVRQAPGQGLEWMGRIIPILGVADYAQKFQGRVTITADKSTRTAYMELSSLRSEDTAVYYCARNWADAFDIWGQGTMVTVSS VL: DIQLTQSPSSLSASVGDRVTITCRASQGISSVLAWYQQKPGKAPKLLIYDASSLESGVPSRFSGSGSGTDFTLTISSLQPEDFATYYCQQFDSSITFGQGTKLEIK ?
A: 102 % of WT

Q: Field request: Mean % WT Binding | item: Refmab #1 (antibody, V domains shown, The alanine scan used IgG or Fab; also called hP67.6) VH: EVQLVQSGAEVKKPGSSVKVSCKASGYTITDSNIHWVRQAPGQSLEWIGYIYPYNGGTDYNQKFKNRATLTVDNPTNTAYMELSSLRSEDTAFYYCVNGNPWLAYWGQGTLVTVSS VL: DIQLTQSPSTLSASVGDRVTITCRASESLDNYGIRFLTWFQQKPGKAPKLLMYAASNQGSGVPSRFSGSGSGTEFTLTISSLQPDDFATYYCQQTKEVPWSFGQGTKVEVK
A: 86.5 % of WT

Q: What does the data say about its Mean % WT Binding? Entry: Refmab #4 (antibody, V domains shown, The alanine scan used IgG or Fab) VH: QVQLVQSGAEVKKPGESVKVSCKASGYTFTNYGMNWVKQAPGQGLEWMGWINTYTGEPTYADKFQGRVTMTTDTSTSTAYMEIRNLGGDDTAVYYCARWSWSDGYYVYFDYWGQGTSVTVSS VL: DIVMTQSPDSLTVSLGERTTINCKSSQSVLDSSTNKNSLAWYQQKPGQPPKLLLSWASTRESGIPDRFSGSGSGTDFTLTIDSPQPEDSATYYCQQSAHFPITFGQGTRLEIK
A: 75.6 % of WT

Q: Return reported Mean % WT Binding; argument: Refmab #3 (antibody, V domains shown, The alanine scan used IgG or Fab) VH: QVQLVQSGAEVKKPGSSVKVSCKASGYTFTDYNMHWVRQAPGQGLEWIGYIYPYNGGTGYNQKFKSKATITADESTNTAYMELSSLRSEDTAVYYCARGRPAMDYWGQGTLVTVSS VL: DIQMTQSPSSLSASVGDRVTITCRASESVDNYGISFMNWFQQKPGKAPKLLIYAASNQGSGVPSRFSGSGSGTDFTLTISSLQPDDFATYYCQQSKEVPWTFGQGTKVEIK
A: 127 % of WT
